target: PI3Kβ (Homo sapiens, UniProt P42338); construct: His tag (pFastbac HTa vector) (N); FLAG (N); made in house; host or cells: Sf21 insect cells (baculovirus); test: Biochemical assay of PI3K potency and selectivity using 20 μM ATP, Beta; conditions: 20 μM ATP; ratio of IC50 values; > = hypothetical ratio with 100 μM substituted for the missing IC50
Sequence (P42338 whole entry): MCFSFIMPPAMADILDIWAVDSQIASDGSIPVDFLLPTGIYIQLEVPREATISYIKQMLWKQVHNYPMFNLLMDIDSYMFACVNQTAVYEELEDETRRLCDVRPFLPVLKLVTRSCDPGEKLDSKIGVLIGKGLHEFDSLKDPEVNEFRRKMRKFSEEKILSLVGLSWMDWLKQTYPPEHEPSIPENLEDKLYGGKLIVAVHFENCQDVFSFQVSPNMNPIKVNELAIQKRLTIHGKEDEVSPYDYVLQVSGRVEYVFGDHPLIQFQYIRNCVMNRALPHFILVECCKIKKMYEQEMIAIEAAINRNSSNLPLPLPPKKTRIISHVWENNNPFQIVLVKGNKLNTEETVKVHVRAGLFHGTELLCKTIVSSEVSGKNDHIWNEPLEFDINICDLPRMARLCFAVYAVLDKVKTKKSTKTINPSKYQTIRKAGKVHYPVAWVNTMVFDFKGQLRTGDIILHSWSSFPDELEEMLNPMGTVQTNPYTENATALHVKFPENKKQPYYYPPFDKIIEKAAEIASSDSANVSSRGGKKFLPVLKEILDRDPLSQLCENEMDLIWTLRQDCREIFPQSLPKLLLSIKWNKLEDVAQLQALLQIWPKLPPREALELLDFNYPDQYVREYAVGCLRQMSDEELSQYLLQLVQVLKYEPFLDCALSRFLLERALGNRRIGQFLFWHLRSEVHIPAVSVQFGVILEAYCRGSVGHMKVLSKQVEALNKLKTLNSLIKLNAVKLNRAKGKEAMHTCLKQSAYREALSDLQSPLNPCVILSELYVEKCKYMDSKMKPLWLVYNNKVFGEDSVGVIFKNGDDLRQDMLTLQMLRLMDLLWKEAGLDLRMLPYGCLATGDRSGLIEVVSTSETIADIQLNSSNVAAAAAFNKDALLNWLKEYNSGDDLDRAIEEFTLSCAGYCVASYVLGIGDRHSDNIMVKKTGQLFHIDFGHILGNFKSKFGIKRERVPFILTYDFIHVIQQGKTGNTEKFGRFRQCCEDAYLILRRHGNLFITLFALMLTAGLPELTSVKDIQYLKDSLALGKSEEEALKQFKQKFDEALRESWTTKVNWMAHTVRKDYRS
Sequence (P27986 whole entry partner): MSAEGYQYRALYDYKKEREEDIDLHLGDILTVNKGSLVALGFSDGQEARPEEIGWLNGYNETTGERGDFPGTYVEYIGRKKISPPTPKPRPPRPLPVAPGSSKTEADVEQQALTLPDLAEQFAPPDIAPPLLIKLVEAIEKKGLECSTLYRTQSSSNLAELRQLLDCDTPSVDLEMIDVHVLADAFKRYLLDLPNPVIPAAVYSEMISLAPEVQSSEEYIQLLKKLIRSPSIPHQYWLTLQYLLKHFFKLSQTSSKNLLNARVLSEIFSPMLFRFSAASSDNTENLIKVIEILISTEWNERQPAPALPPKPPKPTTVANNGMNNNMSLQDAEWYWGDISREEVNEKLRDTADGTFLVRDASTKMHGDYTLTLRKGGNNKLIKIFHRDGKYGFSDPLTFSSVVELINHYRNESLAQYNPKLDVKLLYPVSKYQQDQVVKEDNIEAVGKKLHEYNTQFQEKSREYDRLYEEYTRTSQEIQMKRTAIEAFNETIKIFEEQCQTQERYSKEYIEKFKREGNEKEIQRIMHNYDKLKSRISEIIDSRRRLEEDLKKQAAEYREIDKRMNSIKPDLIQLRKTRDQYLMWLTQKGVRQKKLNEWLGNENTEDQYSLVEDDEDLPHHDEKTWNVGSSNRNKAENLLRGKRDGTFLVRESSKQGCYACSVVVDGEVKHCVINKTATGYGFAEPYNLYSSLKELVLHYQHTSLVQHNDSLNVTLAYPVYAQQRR
observationType: Beta/Delta Ratio

- molecule: "O=c1c2cc(Cl)ccc2nc(CSc2ncnc3[nH]cnc23)n1-c1ccccc1Cl"
  relationSign: ">"
  testValue: 53
- molecule: "Cc1cccc2nc(CSc3ncnc4[nH]cnc34)n(-c3c(Cl)cccc3Cl)c(=O)c12"
  relationSign: "="
  testValue: 74
- molecule: "CCOC(=O)Cn1c(CSc2ncnc3[nH]cnc23)nc2cccc(F)c2c1=O"
  relationSign: ">"
  testValue: 13
- molecule: "CC(=O)O.Nc1ncnc2c1ncn2Cc1nc2ccccc2c(=O)n1N1CCOCC1"
  relationSign: ">"
  testValue: 31
- molecule: "COc1cc2nc(Cn3cnc4c(N)ncnc43)n(-c3ccccc3Cl)c(=O)c2cc1OC"
  relationSign: "="
  testValue: 0.66
- molecule: "O=c1c2cc(O)ccc2nc(CSc2ncnc3[nH]cnc23)n1-c1ccccc1Cl"
  relationSign: ">"
  testValue: 38
- molecule: "COc1ccccc1-n1c(CSc2ncnc3[nH]cnc23)nc2ccccc2c1=O [Compound D-046]"
  relationSign: "="
  testValue: 11
- molecule: "O=c1c2ccccc2nc(CSc2ncnc3[nH]cnc23)n1Cc1ccccc1"
  relationSign: "="
  testValue: 100
